This collection of values is drawn from the kinase profiling compilation of Christmann-Franck et al. (2016).

# experimental_system: MAP4K4 (human) (UniProt O95819)
# Sequence (O95819 whole entry, looked up): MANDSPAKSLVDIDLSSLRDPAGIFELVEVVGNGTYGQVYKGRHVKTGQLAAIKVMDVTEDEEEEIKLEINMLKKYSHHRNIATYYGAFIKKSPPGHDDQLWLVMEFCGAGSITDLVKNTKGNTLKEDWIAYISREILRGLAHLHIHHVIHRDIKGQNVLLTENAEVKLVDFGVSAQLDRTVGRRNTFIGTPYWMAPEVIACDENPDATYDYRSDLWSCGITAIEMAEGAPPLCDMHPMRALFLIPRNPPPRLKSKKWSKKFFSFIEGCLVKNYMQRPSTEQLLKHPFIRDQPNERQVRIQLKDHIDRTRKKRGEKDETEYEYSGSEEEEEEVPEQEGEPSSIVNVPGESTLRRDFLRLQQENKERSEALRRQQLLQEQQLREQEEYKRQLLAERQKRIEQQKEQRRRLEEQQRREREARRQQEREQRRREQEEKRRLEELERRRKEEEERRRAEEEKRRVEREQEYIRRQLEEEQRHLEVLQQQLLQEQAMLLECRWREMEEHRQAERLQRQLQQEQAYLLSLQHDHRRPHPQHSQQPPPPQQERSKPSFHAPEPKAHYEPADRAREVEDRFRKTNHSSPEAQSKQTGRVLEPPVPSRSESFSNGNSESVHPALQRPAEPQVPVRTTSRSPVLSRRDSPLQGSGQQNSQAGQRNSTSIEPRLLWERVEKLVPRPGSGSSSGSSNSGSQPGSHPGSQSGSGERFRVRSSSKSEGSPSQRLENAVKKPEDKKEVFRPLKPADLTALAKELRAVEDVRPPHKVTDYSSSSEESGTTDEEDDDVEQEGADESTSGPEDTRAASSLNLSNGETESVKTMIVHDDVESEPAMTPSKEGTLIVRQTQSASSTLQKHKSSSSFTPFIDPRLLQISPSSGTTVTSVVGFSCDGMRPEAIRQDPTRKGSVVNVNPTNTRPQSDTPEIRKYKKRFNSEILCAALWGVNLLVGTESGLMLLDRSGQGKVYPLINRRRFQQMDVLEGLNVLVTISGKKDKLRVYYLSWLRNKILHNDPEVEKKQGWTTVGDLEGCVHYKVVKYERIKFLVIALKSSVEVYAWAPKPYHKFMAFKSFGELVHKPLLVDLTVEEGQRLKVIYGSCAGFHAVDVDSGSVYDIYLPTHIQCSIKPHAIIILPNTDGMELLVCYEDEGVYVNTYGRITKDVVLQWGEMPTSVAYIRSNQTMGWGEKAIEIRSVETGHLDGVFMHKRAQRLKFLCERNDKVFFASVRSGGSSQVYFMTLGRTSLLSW
# assay_procedure: radiometric filter-binding kinase assay, Kinase HotSpot
# condition_notes: compound 0.5 µM; ATP 10 µM
reported_metric: residual activity (%)
API: value field is a number in %; no unit string.

Record excerpt, results attached:
1) N/C(=N\N=C/c1ccc(-c2cccc([N+](=O)[O-])c2)o1)N[N+](=O)[O-] : 95.6
2) CCOc1cc2ncnc(Nc3cccc(Br)c3)c2cc1OCC : 67
3) FC(F)(F)c1ccc(/C=C/c2nc(COc3ccc(CCCCn4ccnn4)cc3)co2)cc1 : 95.1
4) O=C(c1ccccc1)c1ccc(N2CCOCC2)cc1O : 86.4
5) Cc1cc(Nc2nc(-c3ccccc3)nc3ccccc23)n[nH]1 : 25.7

IN: Which value of residual activity has been reported for "COc1cccc(-c2cc(=O)c3ccccc3o2)c1N" in the records?
OUT: 97.2

IN: For the compound "O=C1NC(=O)c2c1c1c3ccccc3[nH]c1c1[nH]c3cc(Br)ccc3c21" , what residual activity is on record?
OUT: 29.3

IN: Need residual activity of "O=c1c(-c2ccc(F)cc2)c(-c2ccncc2)[nH]n1-c1ccc(Cl)cc1" , thanks.
OUT: 93.5

IN: I'd like to know its residual activity. The compound in question is "Cn1cc(/C=C2\C(=O)Nc3ccc(S(N)(=O)=O)cc32)c2ccccc21"
OUT: 22.5

IN: Quick one: residual activity for "COc1cc2c(N3CCN(C(=O)Nc4ccc(OC(C)C)cc4)CC3)ncnc2cc1OCCCN1CCCCC1" ?
OUT: 96.6

====

# experimental_system: UniProt:P49137
# Sequence (P49137 whole entry, looked up): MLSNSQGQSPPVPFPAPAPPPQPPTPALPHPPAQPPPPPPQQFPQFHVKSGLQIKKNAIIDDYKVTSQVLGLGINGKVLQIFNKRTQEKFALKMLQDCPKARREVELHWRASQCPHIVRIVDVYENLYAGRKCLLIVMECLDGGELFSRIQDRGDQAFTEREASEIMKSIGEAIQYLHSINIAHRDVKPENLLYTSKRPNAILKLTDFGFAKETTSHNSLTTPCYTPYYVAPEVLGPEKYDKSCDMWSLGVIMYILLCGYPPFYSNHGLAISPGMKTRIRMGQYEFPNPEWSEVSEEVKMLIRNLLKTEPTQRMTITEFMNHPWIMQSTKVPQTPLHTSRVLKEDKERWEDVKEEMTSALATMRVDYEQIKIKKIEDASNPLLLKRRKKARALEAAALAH
# assay_procedure: radiometric filter-binding kinase assay, Kinase HotSpot
# condition_notes: compound 0.5 µM; ATP 10 µM
reported_metric: residual activity (%)
Write down the numeric answer in % and omit the unit.

Below are worked cases with known answers.
1) N/C(=N\N=C/c1ccc(-c2cccc([N+](=O)[O-])c2)o1)N[N+](=O)[O-] : 96.3
2) O=c1c(-c2ccc(F)cc2)c(-c2ccncc2)[nH]n1-c1ccc(Cl)cc1 : 98.5
3) COc1cc2c(cc1OC)-c1[nH]nc(Nc3cccc(F)c3)c1C2 : 97.2
4) COc1cccc(-c2cc(=O)c3ccccc3o2)c1N : 102

IN: Missing value: residual activity, UniProt:P49137, entry "O=c1[nH]c2ccccc2n1C1CCN(Cc2ccc(-c3nc4cc5[nH]cnc5cc4nc3-c3ccccc3)cc2)CC1" . Fill in?
OUT: 98.7

IN: Lab request: please report residual activity under test system UniProt:P49137 for "FC(F)(F)c1ccc(/C=C/c2nc(COc3ccc(CCCCn4ccnn4)cc3)co2)cc1"
OUT: 97.9

IN: Please tell me: residual activity of "CCc1nc(-c2ccc(OC)cc2)[nH]c1-c1ccncc1" , system UniProt:P49137?
OUT: 100

====

# experimental_system: ACVR1 (human)
# assay_procedure: radiometric filter-binding kinase assay, Kinase HotSpot
# condition_notes: compound 0.5 µM; ATP 10 µM
reported_metric: residual activity (%)
Output spec: scalar in %, unitless text.

IN: GET /values?readout=residual activity&item= "Nc1ncnc2c1cnn2-c1ccccc1"
OUT: 101

IN: Please report the recorded residual activity for "N/C(=N\N=C/c1ccc(-c2cccc([N+](=O)[O-])c2)o1)N[N+](=O)[O-]" .
OUT: 98

IN: What measured residual activity goes with "Cc1cc(Nc2nc(-c3ccccc3)nc3ccccc23)n[nH]1" ?
OUT: 149
